procedure-details: in vivo
Design: species or system mice
condition-info: C57, mouse, iv, 0.037 MBq, total radioactivity, Uptake ratio Tumor/blood
Positions of bridges follow the written chain, without caps; N, C: chain ends. Non-standard residues stand in square brackets, D forms with d. Residues, ends and D or L forms follow the SMILES beside them. *: point of attachment. NOTA = O=C(O)CN1CCN(CC(=O)O)CCN(CC(=O)*)CC1; Nle = CCCC[C@H](N)C(=O)O
observed-property: tissue to tissue ratio at 0.5 h
Respond numerically, and do not add a unit to the figure.

Enquiry: What measured tissue to tissue ratio at 0.5 h goes with CCCC[C@H](NC(=O)CNC(=O)CNC(=O)CN1CCN(CC(=O)O)CCN(CC(=O)O)CC1)C(=O)N[C@H]1CC(=O)NCCCC[C@@H](C(N)=O)NC(=O)[C@H](Cc2c[nH]c3ccccc23)NC(=O)[C@H](CCCNC(=N)N)NC(=O)[C@@H](Cc2ccccc2)NC(=O)[C@H](Cc2c[nH]cn2)NC1=O [^67Cu-NOTA-GGNle-CycMSHhex, ^67Cu-NOTA-GlyGlyNle-CycMSHhex, metal not drawn] ({NOTA}-GG[Nle]DH[dF]RWK-NH2; lactam 4-9) ?
Return: 13.6

* * *

Reported tissue uptake at 0.5 h values follow for various compounds
procedure-details: in vivo
Parameters: species or system mice
condition-info: C57, mouse, iv, 0.037 MBq, total radioactivity, Tumor uptake
Positions of bridges follow the written chain, without caps; N, C: chain ends. Non-standard residues stand in square brackets, D forms with d. Residues, ends and D or L forms follow the SMILES beside them. *: point of attachment. NOTA = O=C(O)CN1CCN(CC(=O)O)CCN(CC(=O)*)CC1; Nle = CCCC[C@H](N)C(=O)O
Give just the numeric value; %ID/g need not be written.

CCCC[C@H](NC(=O)COCCOCCNC(=O)CN1CCN(CC(=O)O)CCN(CC(=O)O)CC1)C(=O)N[C@H]1CC(=O)NCCCC[C@@H](C(N)=O)NC(=O)[C@H](Cc2c[nH]c3ccccc23)NC(=O)[C@H](CCCNC(=N)N)NC(=O)[C@@H](Cc2ccccc2)NC(=O)[C@H](Cc2c[nH]cn2)NC1=O [^67Cu-NOTA-PEG2Nle-CycMSHhex, metal not drawn] :: 8.83

Now look at this entry.
Enquiry: Given CCCC[C@H](NC(=O)CNC(=O)CNC(=O)CN1CCN(CC(=O)O)CCN(CC(=O)O)CC1)C(=O)N[C@H]1CC(=O)NCCCC[C@@H](C(N)=O)NC(=O)[C@H](Cc2c[nH]c3ccccc23)NC(=O)[C@H](CCCNC(=N)N)NC(=O)[C@@H](Cc2ccccc2)NC(=O)[C@H](Cc2c[nH]cn2)NC1=O [^67Cu-NOTA-GGNle-CycMSHhex, ^67Cu-NOTA-GlyGlyNle-CycMSHhex, metal not drawn] ({NOTA}-GG[Nle]DH[dF]RWK-NH2; lactam 4-9) , state its recorded tissue uptake at 0.5 h.
Return: 16.6

* * *

# Lookup of reported tissue to tissue ratio at 2 h keyed by entry
procedure-details: in vivo
Design: species or system mice
condition-info: C57, mouse, iv, 0.037 MBq, total radioactivity, Uptake ratio Tumor/lung
Positions of bridges follow the written chain, without caps; N, C: chain ends. Non-standard residues stand in square brackets, D forms with d. Residues, ends and D or L forms follow the SMILES beside them. *: point of attachment. NOTA = O=C(O)CN1CCN(CC(=O)O)CCN(CC(=O)*)CC1; Nle = CCCC[C@H](N)C(=O)O
In your answer, state the number alone without any accompanying words.

CCCC[C@H](NC(=O)CNC(=O)CNC(=O)CN1CCN(CC(=O)O)CCN(CC(=O)O)CC1)C(=O)N[C@H]1CC(=O)NCCCC[C@@H](C(N)=O)NC(=O)[C@H](Cc2c[nH]c3ccccc23)NC(=O)[C@H](CCCNC(=N)N)NC(=O)[C@@H](Cc2ccccc2)NC(=O)[C@H](Cc2c[nH]cn2)NC1=O [^67Cu-NOTA-GGNle-CycMSHhex, ^67Cu-NOTA-GlyGlyNle-CycMSHhex, metal not drawn] ({NOTA}-GG[Nle]DH[dF]RWK-NH2; lactam 4-9) :: 28.4

Continue with the compound presented below.
Enquiry: Would you kindly share the measured tissue to tissue ratio at 2 h for CCCC[C@H](NC(=O)COCCOCCNC(=O)CN1CCN(CC(=O)O)CCN(CC(=O)O)CC1)C(=O)N[C@H]1CC(=O)NCCCC[C@@H](C(N)=O)NC(=O)[C@H](Cc2c[nH]c3ccccc23)NC(=O)[C@H](CCCNC(=N)N)NC(=O)[C@@H](Cc2ccccc2)NC(=O)[C@H](Cc2c[nH]cn2)NC1=O [^67Cu-NOTA-PEG2Nle-CycMSHhex, metal not drawn] ?
Return: 52.8

* * *

procedure-details: in vivo
Parameters: species or system mice
condition-info: C57, mouse, iv, 0.037 MBq, total radioactivity, Uptake ratio Tumor/blood
Positions of bridges follow the written chain, without caps; N, C: chain ends. Non-standard residues stand in square brackets, D forms with d. Residues, ends and D or L forms follow the SMILES beside them. *: point of attachment. NOTA = O=C(O)CN1CCN(CC(=O)O)CCN(CC(=O)*)CC1; Nle = CCCC[C@H](N)C(=O)O
observed-property: tissue to tissue ratio at 24 h
Please respond with just the number, no unit label.

CCCC[C@H](NC(=O)COCCOCCNC(=O)CN1CCN(CC(=O)O)CCN(CC(=O)O)CC1)C(=O)N[C@H]1CC(=O)NCCCC[C@@H](C(N)=O)NC(=O)[C@H](Cc2c[nH]c3ccccc23)NC(=O)[C@H](CCCNC(=N)N)NC(=O)[C@@H](Cc2ccccc2)NC(=O)[C@H](Cc2c[nH]cn2)NC1=O [^67Cu-NOTA-PEG2Nle-CycMSHhex, metal not drawn] :: 456

Enquiry: Could you tell me which tissue to tissue ratio at 24 h is on file for CCCC[C@H](NC(=O)CNC(=O)CNC(=O)CN1CCN(CC(=O)O)CCN(CC(=O)O)CC1)C(=O)N[C@H]1CC(=O)NCCCC[C@@H](C(N)=O)NC(=O)[C@H](Cc2c[nH]c3ccccc23)NC(=O)[C@H](CCCNC(=N)N)NC(=O)[C@@H](Cc2ccccc2)NC(=O)[C@H](Cc2c[nH]cn2)NC1=O [^67Cu-NOTA-GGNle-CycMSHhex, ^67Cu-NOTA-GlyGlyNle-CycMSHhex, metal not drawn] ({NOTA}-GG[Nle]DH[dF]RWK-NH2; lactam 4-9) ?
Return: 492

* * *

procedure-details: in vivo
Design: species or system mice
condition-info: C57, mouse, iv, 0.037 MBq, total radioactivity, Tumor/liver ratio as times the tumor/liver ratio of ^67Cu-NOTA-GGNle-CycMSHhex
observed-property: tissue to tissue ratio at 4 h
Output: the number by itself.

Enquiry: Consider the molecule CCCC[C@H](NC(=O)COCCOCCNC(=O)CN1CCN(CC(=O)O)CCN(CC(=O)O)CC1)C(=O)N[C@H]1CC(=O)NCCCC[C@@H](C(N)=O)NC(=O)[C@H](Cc2c[nH]c3ccccc23)NC(=O)[C@H](CCCNC(=N)N)NC(=O)[C@@H](Cc2ccccc2)NC(=O)[C@H](Cc2c[nH]cn2)NC1=O [^67Cu-NOTA-PEG2Nle-CycMSHhex, metal not drawn] and give its measured tissue to tissue ratio at 4 h.
Return: 2
